Every entry's value here was drawn from patent US7786141B2.

Give measured Emax for each item. Keep answers brief.
- EXPERIMENTAL TARGET: M1 muscarinic receptor (Homo sapiens)
- Construct: expressed in transfected cells; host or cells: CHO (M1-CHO)
- Sequence (P11229 whole entry): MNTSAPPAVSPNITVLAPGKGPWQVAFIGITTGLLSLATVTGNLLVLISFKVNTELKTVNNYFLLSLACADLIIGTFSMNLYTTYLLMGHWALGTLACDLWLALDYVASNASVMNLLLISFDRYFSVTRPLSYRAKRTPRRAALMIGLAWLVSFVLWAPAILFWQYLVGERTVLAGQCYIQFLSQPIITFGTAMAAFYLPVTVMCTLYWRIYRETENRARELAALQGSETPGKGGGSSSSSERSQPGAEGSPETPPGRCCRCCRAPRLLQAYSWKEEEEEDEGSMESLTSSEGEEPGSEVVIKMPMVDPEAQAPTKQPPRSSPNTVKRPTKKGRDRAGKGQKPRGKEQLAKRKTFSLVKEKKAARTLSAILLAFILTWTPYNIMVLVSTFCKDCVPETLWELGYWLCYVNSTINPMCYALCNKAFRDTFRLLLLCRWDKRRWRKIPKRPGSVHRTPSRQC
- ASSAY EXPLANATION: Functional mobilization of intracellular calcium (FLIPR) in M1-CHO cells
- Type: cell-based
- APPLIED CONDITIONS: Table 4; 100% efficacy is the maximum response obtained with the Carbachol control

## Input What is its Emax for M1 muscarinic receptor (Homo sapiens)? Entry: "CC(=O)N1CC2(CCN(C3CCN(C(=O)OCC4CC4)CC3)CC2)c2ccccc21"
## Output 25 to 100%

## Input // fetch M1 muscarinic receptor (Homo sapiens) Emax for "CC1=C(CCN2CCC3(CC2)C[C@H](NC(=O)C2CCCC2)c2ccccc23)C(C)(C)CCC1"
## Output < 25%

## Input Fill in the recorded Emax for this compound, with M1 muscarinic receptor (Homo sapiens) as test system: "COc1cccc(-c2cncc(N3CCC(N4CCC5(CC4)CN(C(C)=O)c4ccccc45)CC3)n2)c1"
## Output < 25%

## Input Give M1 muscarinic receptor (Homo sapiens) Emax for CC(C)C1CCC(N2CCC3(CC2)CC(C(=O)O)c2ccccc23)CC1 (stereo not shown)
## Output < 25%

Kindly give each listed record's Emax.
1. CC(=O)N1CC2(CCN(C[C@@H]3CCN(C(=O)OC(C)C)C3)CC2)c2ccccc21
2. CC(=O)N[C@H]1CCC2(CCN(CC3CCOC3)CC2)c2ccccc21 (stereo partly shown)
3. Cc1ccc2c(c1)C1(CCN(C3CC4CCC3C4)CC1)CN2C(=O)c1ccco1 (stereo not shown)
4. CCOC(=O)N1C2CCC1CC(N1CCC3(CC[C@H](NC(=O)N(C)C)c4ccccc43)CC1)C2 (stereo partly shown)
5. CC(=O)N1CC2(CCN(C3CCN(c4cncc(C5CC5)n4)CC3)CC2)c2ccccc21

## Output
1. < 25%
2. 25 to 100%
3. 25 to 100%
4. 25 to 100%
5. 25 to 100%

Could you report Emax for every entry in the following list?
1. CCOC(=O)N1CCC(N2CCC3(CC2)CN(C(C)=O)c2c(C4CCCC4)cccc23)CC1
2. CC(=O)N1CC2(CCN(C3CCN(c4nc(C)ns4)CC3)CC2)c2cc(F)ccc21
3. CN(C)C(=O)N1CC2(CCN(C3CCN(C(=O)COc4ccccc4)CC3)CC2)c2cc(F)ccc21
4. CC(=O)N[C@H]1CC2(CCN(CC3CC4C=CC3C4)C2)c2ccc(F)cc21 (stereo partly shown)

## Output
1. 25 to 100%
2. 25 to 100%
3. < 25%
4. 25 to 100%

====

- EXPERIMENTAL TARGET: M4 muscarinic receptor (Homo sapiens)
- Construct: expressed in transfected cells; host or cells: CHO (M4-CHO)
- Sequence (P08173 1-479): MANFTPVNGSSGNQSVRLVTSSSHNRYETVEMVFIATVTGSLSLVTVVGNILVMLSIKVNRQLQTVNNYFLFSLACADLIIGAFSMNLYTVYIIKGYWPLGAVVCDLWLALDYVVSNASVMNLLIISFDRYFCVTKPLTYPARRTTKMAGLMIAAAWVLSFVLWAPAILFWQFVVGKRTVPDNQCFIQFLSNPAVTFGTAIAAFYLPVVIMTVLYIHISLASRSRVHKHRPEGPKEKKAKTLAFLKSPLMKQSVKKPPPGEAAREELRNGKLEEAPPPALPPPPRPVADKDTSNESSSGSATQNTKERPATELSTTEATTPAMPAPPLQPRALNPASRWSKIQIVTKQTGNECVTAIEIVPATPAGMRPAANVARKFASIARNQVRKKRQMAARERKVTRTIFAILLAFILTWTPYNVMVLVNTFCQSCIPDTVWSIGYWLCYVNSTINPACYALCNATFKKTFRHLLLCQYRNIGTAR
- ASSAY EXPLANATION: Functional mobilization of intracellular calcium (FLIPR) in M4-CHO cells
- Type: cell-based
- APPLIED CONDITIONS: Table 4; 100% efficacy is the maximum response obtained with the Carbachol control
- Method: Functional Mobilization of Intracellular Calcium to Determine Muscarinic Receptor Activity: […] Compounds are prepared at a 2× fold concentration in a 96-well plate (round bottom, Costar Corning cat# 3656), by reconstituting the pre-spotted compounds in bath 1 containing 1 mM probenecid. […] In both assay modes, the fluorescence is recorded for 60 sec (excitation wavelength is […] and emission wavelength 540 nm) using the FLIPR 3 instrument. […]
Assignment: determine reported Emax for the given molecules.

Worked examples follow.
## Input May I ask what Emax has been recorded for "CCOC(=O)N1CCC(CN2CCC3(CC2)CN(C(C)=O)c2c(C(F)(F)F)cccc23)CC1" ?
## Output 25 to 100%

## Input For the molecule "COc1ccc(N2CCC(N3CCC4(CC3)CN(C(=O)N(C)C)c3ccc(F)cc34)CC2)nn1" , what Emax is on record?
## Output 25 to 100%

## Input // query Emax value for entry "C#CCOC(=O)N1CC[C@H](CN2CCC3(CC2)CN(C(=O)N(C)C)c2ccc(F)cc23)C1"
## Output > 100%

Now turn to the next molecule.
## Input State the recorded Emax for this entry: "CCC#CCOC(=O)N1CC[C@@H](CN2CCC3(CC2)CN(C(=O)N(C)C)c2ccc(F)cc23)C1"
## Output 25 to 100%
